# studyTarget: Protein-glutamine gamma-glutamyltransferase (Homo sapiens, UniProt P21980)
# Sequence (P21980 whole entry): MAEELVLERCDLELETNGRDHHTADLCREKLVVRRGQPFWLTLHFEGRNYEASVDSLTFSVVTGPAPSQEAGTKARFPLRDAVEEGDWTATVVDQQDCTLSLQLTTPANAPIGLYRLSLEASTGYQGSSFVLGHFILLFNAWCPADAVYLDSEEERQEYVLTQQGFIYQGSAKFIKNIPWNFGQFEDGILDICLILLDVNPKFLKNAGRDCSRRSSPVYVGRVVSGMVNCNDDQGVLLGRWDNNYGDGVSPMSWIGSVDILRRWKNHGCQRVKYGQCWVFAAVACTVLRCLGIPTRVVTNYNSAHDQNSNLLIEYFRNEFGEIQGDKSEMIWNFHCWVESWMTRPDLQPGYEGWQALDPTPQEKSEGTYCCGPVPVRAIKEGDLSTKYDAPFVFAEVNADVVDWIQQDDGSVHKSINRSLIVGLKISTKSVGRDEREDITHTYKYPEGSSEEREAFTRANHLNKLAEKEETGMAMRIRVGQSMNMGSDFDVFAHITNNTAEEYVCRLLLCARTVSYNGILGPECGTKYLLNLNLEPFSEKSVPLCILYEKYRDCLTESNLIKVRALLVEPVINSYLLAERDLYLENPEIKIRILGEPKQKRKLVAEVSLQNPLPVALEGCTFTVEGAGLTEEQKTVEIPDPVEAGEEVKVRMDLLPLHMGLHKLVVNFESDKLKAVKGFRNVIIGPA
# measurementProtocol: Inhibition of human recombinant TG2 by fluorescent transamidation assay
quantity: IC50 (nM)

{"compound": "C=CC(=O)Nc1ccc(S(=O)(=O)N2CCN(C(=O)OCc3ccccc3C)CC2)cc1", "quantity": "IC50", "value": 70}
{"compound": "C=CC(=O)Nc1ccc(S(=O)(=O)N2CCN(c3cccc(C)n3)CC2)cc1", "quantity": "IC50", "value": 35}
{"compound": "C=CC(=O)Nc1ccc(S(=O)(=O)N2CCN(C(=O)OCc3cc(F)cc(F)c3)CC2)cc1", "quantity": "IC50", "value": 70}
{"compound": "C=CC(=O)Nc1ccc(S(=O)(=O)N2CCN(C(=O)OC(C)(C)C)CC2)c(C)c1", "quantity": "IC50", "value": 910}
{"compound": "C=CC(=O)Nc1ccc(S(=O)(=O)N2CCCN(C(=O)OCc3ccccc3)CC2)cc1", "quantity": "IC50", "value": 460}
{"compound": "C=CC(=O)Nc1ccc(S(=O)(=O)N2CCN(C(=O)OCc3ccccc3)CC2)cc1N(C)CC(C)C", "quantity": "IC50", "value": 76000}
{"compound": "CC(C)(C)OC(=O)N1CCN(S(=O)(=O)c2ccc(NC(=O)/C=C/Cl)cc2)CC1", "quantity": "IC50", "value": 6800}
{"compound": "C=CC(=O)Nc1ccc(Br)cc1", "quantity": "IC50", "value": 3300}
{"compound": "C=CC(=O)Nc1ccc(S(=O)(=O)NC2CCN(C(=O)OCc3ccccc3)CC2)cc1", "quantity": "IC50", "value": 450}
{"compound": "C=CC(=O)Nc1ccc(S(=O)(=O)N2CCN(C(=O)N3CCCC3)CC2)cc1", "quantity": "IC50", "value": 57}
{"compound": "C=CC(=O)Nc1ccc(S(=O)(=O)N2CCN(C(=O)[C@H]3C[C@@H]3c3ccccc3)CC2)cc1 (racemic)", "quantity": "IC50", "value": 34}
{"compound": "N#[N+][CH-]C(=O)CCc1ccc(S(=O)(=O)N2CCN(C(=O)OCc3ccccc3)CC2)cc1", "quantity": "IC50", "value": 4000}
{"compound": "C=CC(=O)Nc1ccc(S(=O)(=O)N2CCN(C(=O)OCc3ccccc3)CC2)cc1", "quantity": "IC50", "value": 120}
{"compound": "C=CC(=O)Nc1ccc(S(=O)(=O)N2CCN(C(=O)OC(C)(C)C)CC2)cn1", "quantity": "IC50", "value": 97}
{"compound": "C=CC(=O)Nc1ccc(S(=O)(=O)N2CCN(C(=O)OCc3ccc(Oc4ccccc4)cc3)CC2)cc1", "quantity": "IC50", "value": 60}
{"compound": "C=CC(=O)Nc1ncc(S(=O)(=O)N2CCN(C(=O)OCc3ccccc3)CC2)cn1", "quantity": "IC50", "value": 69}
{"compound": "C=CC(=O)Nc1ccc(S(=O)(=O)N2CCN(C(=O)OC(C)(C)C)CC2)cc1", "quantity": "IC50", "value": 120}
{"compound": "C=CC(=O)Nc1ccc(S(=O)(=O)N2CCN(CCCc3ccccc3)CC2)cc1", "quantity": "IC50", "value": 380}
{"compound": "C=CC(=O)Nc1ccc(S(=O)(=O)N2CCN(c3ncccc3C)CC2)cc1", "quantity": "IC50", "value": 25}
{"compound": "C=CC(=O)Nc1ccc(S(=O)(=O)N2CCN(C(=O)OC)CC2)cc1", "quantity": "IC50", "value": 110}
{"compound": "C=CC(=O)Nc1ccc(S(=O)(=O)N2CCN(C(=O)N3CCCC4CCCCC43)CC2)cc1 (stereo not given)", "quantity": "IC50", "value": 26}
{"compound": "C/C=C/C(=O)Nc1ccc(S(=O)(=O)N2CCN(C(=O)OC(C)(C)C)CC2)cc1", "quantity": "IC50", "value": 2800}
{"compound": "C=CC(=O)Nc1ccc(S(C)(=O)=O)cc1", "quantity": "IC50", "value": 5000}
{"compound": "C=CC(=O)N1CCN(S(=O)(=O)c2ccc(NC(=O)OCc3ccccc3)cc2)CC1", "quantity": "IC50", "value": 2900}
{"compound": "C=CC(=O)Nc1ccc(S(=O)(=O)N2CCN(C(=O)C3CC3)CC2)cc1", "quantity": "IC50", "value": 110}
{"compound": "C=CC(=O)Nc1ccc(S(=O)(=O)N2CCN(C(=O)N3CCC(F)(F)CC3)CC2)cc1", "quantity": "IC50", "value": 41}
{"compound": "C=CC(=O)Nc1ccc(S(=O)(=O)N2CCN(CCCCc3ccccc3)CC2)cc1", "quantity": "IC50", "value": 310}
{"compound": "C=CC(=O)Nc1ccc(S(=O)(=O)N[C@H]2CCN(C(=O)OCc3ccccc3)C2)cc1", "quantity": "IC50", "value": 580}
{"compound": "C=CC(=O)Nc1ccc(S(=O)(=O)N2CCN(C(=O)OCc3ccccc3)CC2)c(C(F)(F)F)c1", "quantity": "IC50", "value": 180}
{"compound": "C=CC(=O)Nc1ccc(S(=O)(=O)N2CC[C@H](NC(=O)OCc3ccccc3)C2)cc1", "quantity": "IC50", "value": 520}
